Measured values drawn from patent US10399940B2 for this set.

Items are presented alongside their recorded EC50.
target: F508delCFTR (Homo sapiens, UniProt P13569, DEL508-508)
Construct: expressed in transfected cells; host or cells: CFBE41o- (human lung derived epithelial cell line), doxycycline-inducible expression
Sequence (P13569 with tags, fused parts or gaps DEL508-508): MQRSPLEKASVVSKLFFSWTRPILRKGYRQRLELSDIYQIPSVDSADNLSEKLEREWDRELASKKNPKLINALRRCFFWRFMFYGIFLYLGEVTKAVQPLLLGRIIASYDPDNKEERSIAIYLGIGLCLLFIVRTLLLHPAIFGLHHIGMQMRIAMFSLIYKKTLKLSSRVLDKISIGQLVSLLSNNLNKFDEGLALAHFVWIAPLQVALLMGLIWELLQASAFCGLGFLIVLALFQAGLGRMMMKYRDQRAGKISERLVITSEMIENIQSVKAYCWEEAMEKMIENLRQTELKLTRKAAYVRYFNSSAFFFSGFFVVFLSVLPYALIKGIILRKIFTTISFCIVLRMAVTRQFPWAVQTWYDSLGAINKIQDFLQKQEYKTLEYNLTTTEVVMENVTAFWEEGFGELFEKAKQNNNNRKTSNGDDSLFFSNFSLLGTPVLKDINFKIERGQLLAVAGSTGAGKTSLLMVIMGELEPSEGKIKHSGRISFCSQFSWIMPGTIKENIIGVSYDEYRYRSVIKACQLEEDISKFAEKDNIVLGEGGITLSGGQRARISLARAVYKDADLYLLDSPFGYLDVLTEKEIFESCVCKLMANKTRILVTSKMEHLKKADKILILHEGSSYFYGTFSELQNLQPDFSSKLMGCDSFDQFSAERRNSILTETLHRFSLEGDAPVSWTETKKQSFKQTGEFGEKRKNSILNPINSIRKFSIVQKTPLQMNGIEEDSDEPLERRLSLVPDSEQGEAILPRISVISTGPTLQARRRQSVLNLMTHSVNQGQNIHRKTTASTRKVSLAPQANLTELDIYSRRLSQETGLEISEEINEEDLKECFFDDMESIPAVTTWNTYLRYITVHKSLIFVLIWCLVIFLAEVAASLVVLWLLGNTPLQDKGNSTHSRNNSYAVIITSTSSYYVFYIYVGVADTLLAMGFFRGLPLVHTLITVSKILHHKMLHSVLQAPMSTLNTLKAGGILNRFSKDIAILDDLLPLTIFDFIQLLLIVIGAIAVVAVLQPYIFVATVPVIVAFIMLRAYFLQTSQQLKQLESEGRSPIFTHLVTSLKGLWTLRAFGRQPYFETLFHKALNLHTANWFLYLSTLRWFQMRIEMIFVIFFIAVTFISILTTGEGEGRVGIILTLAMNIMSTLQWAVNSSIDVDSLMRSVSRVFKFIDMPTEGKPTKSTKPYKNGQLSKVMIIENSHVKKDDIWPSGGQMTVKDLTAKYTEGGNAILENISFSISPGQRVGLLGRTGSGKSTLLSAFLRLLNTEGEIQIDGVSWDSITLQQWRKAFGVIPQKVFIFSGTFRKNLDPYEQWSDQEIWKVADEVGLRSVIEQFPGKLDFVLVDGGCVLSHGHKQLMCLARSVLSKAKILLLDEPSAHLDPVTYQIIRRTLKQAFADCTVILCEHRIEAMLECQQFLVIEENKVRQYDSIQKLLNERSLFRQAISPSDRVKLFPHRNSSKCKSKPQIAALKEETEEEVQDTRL
procedure summary: Cell Surface Expression-Horse Radish Peroxidase (CSE-HRP) assay
Format: cell-based
study conditions: CFBE41o-F508delCFTR-HRP cells; test compound without co-corrector; 18-24 hours at 33° C.; read-out: EC50 (without co-corrector)
value type: EC50

molecule="COc1ccc(C(F)(F)F)cc1CO[C@H]1[C@H](C(C)(C)C)[C@@H](C(=O)O)N(C(=O)N(C(C)C)C(C)C)[C@H]1c1ccccc1 (single isomer, unassigned)" test_result="> 10 µM"
molecule=COc1ncc(C(F)(F)F)cc1CO[C@H]1[C@H](C(C)(C)C)[C@@H](C(=O)O)N(C(=O)C2CCCCC2)[C@H]1c1ccccc1 test_result="< 1 µM"
molecule="COc1ccc(Cl)cc1CO[C@@H]1[C@@H](C(C)(C)C)[C@H](C(=O)O)N(C(=O)OC2CCC2)[C@@H]1c1ccccc1 (racemic)" test_result="1 to 10 µM"
molecule=COc1ncc(N2CCC(F)(F)C2)cc1CO[C@H]1[C@H](C(C)(C)C)[C@@H](C(=O)O)N(C(=O)OC(C)C)[C@H]1c1ccccc1 test_result="1 to 10 µM"
molecule=COc1ncc(C(F)(F)F)cc1CO[C@H]1[C@H](C(C)(C)C)[C@@H](C(=O)O)N(C(=O)[C@@H]2CCCCO2)[C@H]1c1ccccc1-c1ccc(C(F)(F)F)nc1 test_result="1 to 10 µM"
molecule=COc1ccc(C(F)(F)F)cc1CO[C@@H]1[C@H](C(C)(C)C)[C@@H](C(=O)O)N(C(=O)[C@@H]2CCCO2)[C@H]1c1cccnc1C(F)(F)F test_result="> 10 µM"
